Taken from patent US20070111251A1.

- System: HeLa cells
- TEST_NAME: Kinetic imaging of NBD-triazine probe uptake and sequestration, fitted to nested two-compartment transport model
- Format: cell-based
- RUN_PARAMETERS: median over optimal solutions within 5% of the best fit
ENDPOINT_LABEL: median Pap(cyto) (apparent partition coefficient between extracellular medium and cytosol)

- COMPOUND: "CC1CCCCC1Nc1nc(NCCCCCCNc2ccc([N+](=O)[O-])c3nonc23)nc(NCc2ccccc2)n1 (stereo not shown)"
  RESULT: 19.23
- COMPOUND: "O=[N+]([O-])c1ccc(NCCCCCCNc2nc(NCCC(c3ccccc3)c3ccccc3)nc(NC3CCCCC3)n2)c2nonc12"
  RESULT: 3.33

Lab entry: HeLa cells assay, compound CCCCCCCCNc1nc(NCCCCCCNc2ccc([N+](=O)[O-])c3nonc23)nc(NCc2cccc(OC)c2)n1 , median Pap(cyto) (apparent partition coefficient between extracellular medium and cytosol) = 3.43

Lab entry: HeLa cells assay, compound Cc1ccc(CNc2nc(NCCCCCCNc3ccc([N+](=O)[O-])c4nonc34)nc(NCCC(C)C)n2)cc1 , median Pap(cyto) (apparent partition coefficient between extracellular medium and cytosol) = 8.29

Lab entry: HeLa cells assay, compound COc1ccc(CNc2nc(NCCCCCCNc3ccc([N+](=O)[O-])c4nonc34)nc(NC3CCCCC3)n2)cc1 , median Pap(cyto) (apparent partition coefficient between extracellular medium and cytosol) = 12.58

Lab entry: HeLa cells assay, compound O=[N+]([O-])c1ccc(NCCCCCCNc2nc(NCc3cccc(F)c3)nc(NC3CCCCC3)n2)c2nonc12 , median Pap(cyto) (apparent partition coefficient between extracellular medium and cytosol) = 8.70

Lab entry: HeLa cells assay, compound O=[N+]([O-])c1ccc(NCCCCCCNc2nc(NCCc3ccccc3)nc(NCc3cccc(F)c3)n2)c2nonc12 , median Pap(cyto) (apparent partition coefficient between extracellular medium and cytosol) = 5.10

====

- System: mitochondria
- TEST_NAME: QSLR factorial logistic regression of mitochondrial localization (affinity coefficients, cross-validated prediction)
- Set-up: species or system human
- RUN_PARAMETERS: mitochondrial affinity; ±5 for groups always or never mitochondrial
ENDPOINT_LABEL: estimated A group affinity coefficient ai
Give the figure by itself; no unit, no explanation.

Here's what some known entries look like.
- COMPOUND: "Cc1ccc(C=O)cc1 [A group 8]"
  TEST_TARGET: "mitochondria"
  MEASURED_NUMBER: 5.0
- COMPOUND: "O=Cc1c2ccccc2cc2ccccc12 [A group 34]"
  TEST_TARGET: "mitochondria"
  MEASURED_NUMBER: 5.0

Could you now consider this next compound?
Entry O=CC=Cc1ccccc1[N+](=O)[O-] [A group 36] , estimated A group affinity coefficient ai reported as 5.0

====

- Tested on: HeLa cells
- TEST_NAME: Kinetic imaging of NBD-triazine probe uptake and sequestration, fitted to nested two-compartment transport model
- Type: cell-based
- RUN_PARAMETERS: median over optimal solutions within 5% of the best fit
Categorize each record by its median Pap(cyto) (apparent partition coefficient between extracellular medium and cytosol) using band 1 = under 9, band 2 = from 9 up to 100, band 3 = 100 and over

- COMPOUND: "CC(C)CCNc1nc(NCCCCCCNc2ccc([N+](=O)[O-])c3nonc23)nc(NCCC(c2ccccc2)c2ccccc2)n1 [Compound F8]"
  LABEL: "band 2"

**Q:** For this compound, which bin applies? O=[N+]([O-])c1ccc(NCCCCCCNc2nc(NCc3ccccc3)nc(NCC3CCCCC3)n2)c2nonc12 [Compound A6]
**A:** band 3

**Q:** For this compound, which bin applies? O=[N+]([O-])c1ccc(NCCCCCCNc2nc(NCc3ccccc3)nc(NC3CCCCC3)n2)c2nonc12 [Compound A7]
**A:** band 1

**Q:** For this compound, which bin applies? O=[N+]([O-])c1ccc(NCCCCCCNc2nc(NCCC(c3ccccc3)c3ccccc3)nc(NCC3CCCCC3)n2)c2nonc12 [Compound F6]
**A:** band 1

**Q:** For this compound, which bin applies? CC1CCCCC1Nc1nc(NCCCCCCNc2ccc([N+](=O)[O-])c3nonc23)nc(NCCC(c2ccccc2)c2ccccc2)n1 (centres unmarked) [Compound F5]
**A:** band 1

**Q:** For this compound, which bin applies? CCCCNc1nc(NCCCCCCNc2ccc([N+](=O)[O-])c3nonc23)nc(NCc2cccc(OC)c2OC)n1 [Compound H1]
**A:** band 3

**Q:** For this compound, which bin applies? COc1ccc(CNc2nc(NCCCCCCNc3ccc([N+](=O)[O-])c4nonc34)nc(NC3CCCCC3C)n2)cc1 (centres unmarked) [Compound C5]
**A:** band 2

**Q:** For this compound, which bin applies? COc1ccc(CCNc2nc(NCCCCCCNc3ccc([N+](=O)[O-])c4nonc34)nc(NCCc3ccccn3)n2)cc1 [Compound D9]
**A:** band 1

**Q:** For this compound, which bin applies? COc1cccc(CNc2nc(NCCCCCCNc3ccc([N+](=O)[O-])c4nonc34)nc(NC(C)C)n2)c1OC [Compound H2]
**A:** band 2

**Q:** For this compound, which bin applies? COc1ccc(CCNc2nc(NCCCCCCNc3ccc([N+](=O)[O-])c4nonc34)nc(NC(C)C)n2)cc1 [Compound D2]
**A:** band 3

**Q:** For this compound, which bin applies? O=[N+]([O-])c1ccc(NCCCCCCNc2nc(NCCc3ccccn3)nc(NCc3cccc(F)c3)n2)c2nonc12 [Compound E9]
**A:** band 3

**Q:** For this compound, which bin applies? COc1cccc(CNc2nc(NCCCCCCNc3ccc([N+](=O)[O-])c4nonc34)nc(NC3CCC(C)CC3)n2)c1 (centres unmarked) [Compound B4]
**A:** band 2

**Q:** For this compound, which bin applies? COc1cccc(CNc2nc(NCCCCCCNc3ccc([N+](=O)[O-])c4nonc34)nc(NCC3CCCCC3)n2)c1 [Compound B6]
**A:** band 3
